Taken from PubChem BioAssay AID1476.

Molecular target: Cruzipain (Trypanosoma cruzi) (UniProt P25779)
Sequence (P25779 123-467 limits assumed): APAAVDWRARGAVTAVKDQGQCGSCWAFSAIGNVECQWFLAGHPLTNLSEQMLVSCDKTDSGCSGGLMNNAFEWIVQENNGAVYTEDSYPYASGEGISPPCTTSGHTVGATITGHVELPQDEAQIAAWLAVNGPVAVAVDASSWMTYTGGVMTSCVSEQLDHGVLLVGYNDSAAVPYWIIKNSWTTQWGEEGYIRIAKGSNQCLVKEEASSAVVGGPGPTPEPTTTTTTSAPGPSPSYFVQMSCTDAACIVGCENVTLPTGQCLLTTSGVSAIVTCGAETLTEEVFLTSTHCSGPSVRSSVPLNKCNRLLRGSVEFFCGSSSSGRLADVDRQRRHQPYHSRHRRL
Assay: qHTS Assay for Promiscuous and Specific Inhibitors of Cruzain (without detergent)
Settings: purified cruzain, Z-FR-AMC fluorescence, no detergent
Hit rate of the full screen: of about 200,000 compounds, about 4,500 (2.2%) were called active. Not shown: some 12% with an inconclusive outcome. The entries come from a sample that favours actives as a whole.
Consider the following molecules and their measured max response, negative = inhibition readings.

Examples with answers:
COc1ccc2c(c1)c(N1CCCC1=O)c(C(=O)Nc1ccccc1C(F)(F)F)n2C | -10% (inactive)
CCOc1ccccc1C1CC(c2cccc(NS(C)(=O)=O)c2)=NN1C(=O)c1ccccc1 (stereo unspecified) | 4.98% (inactive)
CCn1c(/C=N/NC(=O)c2ccc(OC)cc2)nc2ccccc21 | -22.8% (inactive)
CCc1cccc(C)c1NS(=O)(=O)c1c(C)nc2sccn2c1=O | 1.11% (inactive)
Cc1ccc(N2CCN(C(=O)CCc3c(C)nc4c(c3C)c(=O)n(C)c(=O)n4C)CC2)c(C)c1 | 6.51% (inactive)
CSCCC(NS(=O)(=O)c1ccc2c(c1)oc(=O)n2C)C(=O)NCc1ccccc1 (stereo unspecified) | -13% (inactive)
CCCc1nc2ccccc2c(C(=O)OCC(=O)c2ccc3c(c2)NC(=O)CO3)c1CC | -2.97% (inactive)
Cc1ccc(NC(=O)CCCn2c(=O)c3cccn3c3ccccc32)cc1Cl | 8.76% (inactive)

Input: Form field - read-out: max response, negative = inhibition; system: Cruzipain (Trypanosoma cruzi) (UniProt P25779); submitted item: COc1ccc(NC(=O)c2ccc(OC)cc2)cc1
Output: -1.58% (inactive)

Input: Form field - read-out: max response, negative = inhibition; system: Cruzipain (Trypanosoma cruzi) (UniProt P25779); submitted item: COc1cc(C2c3c(oc4ccccc4c3=O)C(=O)N2c2nc(C)c(C)s2)ccc1O (stereo unspecified)
Output: -4.14% (inactive)

Input: Form field - read-out: max response, negative = inhibition; system: Cruzipain (Trypanosoma cruzi) (UniProt P25779); submitted item: CCc1ccc(NC(=O)CCCc2nnc3n(CCCOC)c(=O)c4sccc4n23)cc1
Output: 1.39% (inactive)

Input: Form field - read-out: max response, negative = inhibition; system: Cruzipain (Trypanosoma cruzi) (UniProt P25779); submitted item: O=C(CN1CCSc2ccccc21)N1CCN(c2ccccc2)CC1
Output: -4.92% (inactive)

Input: Form field - read-out: max response, negative = inhibition; system: Cruzipain (Trypanosoma cruzi) (UniProt P25779); submitted item: O=C(NCCc1ccccc1)c1ccc2c(c1)N(Cc1ccc(F)cc1)C(=O)c1ccccc1S2(=O)=O
Output: 2.91% (inactive)

Input: Form field - read-out: max response, negative = inhibition; system: Cruzipain (Trypanosoma cruzi) (UniProt P25779); submitted item: COCCNC(=O)c1ccc2c(c1)N(Cc1cccc(Cl)c1)C(=O)c1ccccc1S2(=O)=O
Output: 9.95% (inactive)

Input: Form field - read-out: max response, negative = inhibition; system: Cruzipain (Trypanosoma cruzi) (UniProt P25779); submitted item: FC(F)(F)c1cc(-c2cccs2)nc(NCc2ccco2)n1
Output: -1.04% (inactive)

Input: Form field - read-out: max response, negative = inhibition; system: Cruzipain (Trypanosoma cruzi) (UniProt P25779); submitted item: CCS(=O)(=O)N1CCc2cc(C(=O)NCc3ccc(OC)cc3)ccc21
Output: -7.6% (inactive)

Input: Form field - read-out: max response, negative = inhibition; system: Cruzipain (Trypanosoma cruzi) (UniProt P25779); submitted item: O=C(COc1ccc2ccccc2c1)N1CCN(C(=O)c2cccs2)CC1
Output: 12.1% (inactive)

Input: Form field - read-out: max response, negative = inhibition; system: Cruzipain (Trypanosoma cruzi) (UniProt P25779); submitted item: Cc1cnc(C(=O)OCC(=O)Nc2ccc(Cl)cc2Cl)cn1
Output: -17.8% (inactive)

Input: Form field - read-out: max response, negative = inhibition; system: Cruzipain (Trypanosoma cruzi) (UniProt P25779); submitted item: O=C(CCc1nc2ccccc2c(=O)[nH]1)OCC(=O)c1cccc(Cl)c1
Output: -3.88% (inactive)

Input: Form field - read-out: max response, negative = inhibition; system: Cruzipain (Trypanosoma cruzi) (UniProt P25779); submitted item: CCOC(=O)c1sc(NC(=O)CSc2nc3c(c(=O)n2-c2ccccc2)SCC3)c(C(=O)OCC)c1C
Output: -25.7% (inactive)

Input: Form field - read-out: max response, negative = inhibition; system: Cruzipain (Trypanosoma cruzi) (UniProt P25779); submitted item: Cc1ccc(-c2nn(CCC(=O)Nc3ccc(Cl)c(Cl)c3)c(=O)c3ccccc23)cc1
Output: -2.75% (inactive)

---

Molecular target: Cruzipain (Trypanosoma cruzi)
Experiment: qHTS Assay for Promiscuous and Specific Inhibitors of Cruzain (without detergent);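 note: plate controls were enzyme without inhibitor for no effect and buffer without enzyme for full effect; nearly all actives have a fitted effect of over 40% in size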
Details: purified cruzain, Z-FR-AMC fluorescence, no detergent
Procedure: Cruzain is a cysteine protease from the tropical parasite Trypanosoma cruzi. […] Cruzain was assayed by the use of fluorogenic coumarin-based substrate Z-FR-AMC: proteolytic cleavage releases AMC, whose fluorescence is measured at 360 nm excitation and 450 nm emission. […]
The campaign covered roughly 200,000 compounds. About 4,500 (2.2%) were called active. Inconclusive results (about 12%) are left out. For the sample, actives were picked, then their nearest neighbours and some compounds at random.
quantity.measured: max response, negative = inhibition (%)
Form entry: value (%) — number only.

Examples with answers:
C=CCNC(=O)/C(=C\c1cccc([N+](=O)[O-])c1)NC(=O)c1ccccc1 | 10.7
COCCCNC(=S)NC(=O)c1ccc([N+](=O)[O-])cc1 | -9.94
COc1ccc(Cl)cc1NC(=O)CCn1c(=O)c2cccn2c2ccccc21 | 26.4

The record that follows has no max response, negative = inhibition shown yet.
Input: What value of measured max response, negative = inhibition is listed for O=C(Nc1c(C(=O)N2CCN(c3ccc(F)cc3)CC2)oc2ccccc12)c1ccco1 ?
Output: -12.7

---

Target: Cruzipain (Trypanosoma cruzi) (UniProt P25779)
Assay: qHTS Assay for Promiscuous and Specific Inhibitors of Cruzain (without detergent);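 note: plate controls were enzyme without inhibitor for no effect and buffer without enzyme for full effect; nearly all actives have a fitted effect of over 40% in size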
Details: purified cruzain, Z-FR-AMC fluorescence, no detergent
In all, about 200,000 compounds went through this assay and about 4,500 (2.2%) were called active. Roughly 12% stayed inconclusive and do not appear here. The entries come from a sample that favours actives as a whole.
quantity.measured: max response, negative = inhibition (%)
Form entry: value (%) — number only.

Examples with answers:
CCOC(=O)c1cc2c(=O)n3ccccc3nc2n(CCCOC)c1=NC(=O)C(C)(C)Oc1ccc(Cl)cc1 | 4
Cc1ccc(OCC(=O)Nc2ccc(OCc3cc(=O)n4c(C)csc4n3)cc2)cc1C | -9.52
COc1ccc(-c2c(C)nn3c(N4CCC(C(=O)NCCC(C)C)CC4)cc(C)nc23)cc1OC | 4.69
Cc1cccc2c1-c1sc(C(=O)Nc3ccc(F)cc3F)cc1CO2 | -26.4

Input: What value of measured max response, negative = inhibition is listed for O=C(NC1CC(=O)N(c2ccc(F)cc2)C1)c1ccc(S(=O)(=O)N2CCCC2)cc1 (stereo not given) ?
Output: 8.64

---

Target: Cruzipain (Trypanosoma cruzi) (UniProt P25779)
Test: qHTS Assay for Promiscuous and Specific Inhibitors of Cruzain (without detergent);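 note: plate controls were enzyme without inhibitor for no effect and buffer without enzyme for full effect; nearly all actives have a fitted effect of over 40% in size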
Settings: purified cruzain, Z-FR-AMC fluorescence, no detergent
The whole screen tested about 200,000 compounds, of which about 4,500 (2.2%) were called active. Roughly 12% stayed inconclusive and do not appear here. Many of the other results were omitted from the sample, so actives are more common in it than they were.
quantity.measured: max response, negative = inhibition (%)
Form entry: value (%) — number only.

Examples with answers:
Cc1cccc(-n2ncc(C(=O)N3CCN(c4ccc(Cl)cc4)CC3)c2C2CCN(C(=O)OC(C)(C)C)CC2)c1 | -21.4
COc1ccccc1CC(=O)Nc1ccc([N+](=O)[O-])cc1OC | -6.07
Cc1ccc2cccc(NC(=O)c3ccc(OC(C)C)cc3)c2n1 | -1.78
Cc1c(C)n(Cc2ccc(Cl)cc2)c2ccc(C(=O)NCCc3ccc(S(N)(=O)=O)cc3)cc12 | -27.4
O=C(NCc1ccccc1Cl)c1cccn1-c1nnc(N2CCCCC2)s1 | -7.04

Input: What value of measured max response, negative = inhibition is listed for O=C(O)c1c(CNCc2cccc(F)c2)c2ccccc2n1Cc1ccccc1 ?
Output: 0.0489

Input: What value of measured max response, negative = inhibition is listed for Cc1ccc(NC(=O)CN2C(=O)C(c3ccc(F)cc3)=NC23CCCCCC3)c(C)c1 ?
Output: 4.08

Input: What value of measured max response, negative = inhibition is listed for Cc1cn(C)c(CC(=O)NCc2ccccc2)c1C(=O)O ?
Output: -3.27

Input: What value of measured max response, negative = inhibition is listed for O=c1cc(-c2ccc(O)c(O)c2)oc2cccc(O)c12 ?
Output: 0.411

---

Target: Cruzipain (Trypanosoma cruzi) (UniProt P25779)
Experiment: qHTS Assay for Promiscuous and Specific Inhibitors of Cruzain (without detergent);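 note: plate controls were enzyme without inhibitor for no effect and buffer without enzyme for full effect; nearly all actives have a fitted effect of over 40% in size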
Conditions: purified cruzain, Z-FR-AMC fluorescence, no detergent
Among all 200,000 compounds or so, about 4,500 (2.2%) were called active. About 12% were inconclusive and are not listed. Shown is part of a subset that was picked to be rich in actives.
quantity.measured: max response, negative = inhibition (%)
Form entry: value (%) — number only.

Cc1ccc2oc(=O)c3cnn(CC(=O)N4CCN(c5cccc(Cl)c5)CC4)c3c2c1 | -11.7
Cc1ccc(CNC(=O)CCc2c(C)nc3nc(CNC(=O)OC(C)(C)C)nn3c2C)cc1 | 11.1
CCn1cc(CCC(=O)NCc2ccc(F)cc2)c2ccccc21 | -13.6
COc1cccc(NC(=O)c2csnn2)c1 | -5.7
c1ccc2[nH]c(-c3nc4ccccc4[nH]3)nc2c1 | 9

Input: What value of measured max response, negative = inhibition is listed for Cc1nnc(NC(=O)CSc2nc3c([nH]c4ccccc43)c(=O)n2-c2cccc(Cl)c2)s1 ?
Output: 2.35

Input: What value of measured max response, negative = inhibition is listed for Cc1ccccc1NC(=O)Cn1c(=O)n(CCc2ccccc2)c(=O)c2ccccc21 ?
Output: -10.6

Input: What value of measured max response, negative = inhibition is listed for COc1ccc(S(=O)(=O)N2CCCC(C(=O)Nc3ccc(NC(=O)c4ccccn4)cc3)C2)cc1 (configuration not stated) ?
Output: -11.4

Input: What value of measured max response, negative = inhibition is listed for Fc1ccc(CN2CCc3nc(Nc4ccccc4)ncc3C2)cc1F ?
Output: -18.7

Input: What value of measured max response, negative = inhibition is listed for CCOC(=O)C1CCN(c2nc3c(S(=O)(=O)c4ccc(CC)cc4)nnn3c3ccc(Cl)cc23)CC1 ?
Output: -25.4

Input: What value of measured max response, negative = inhibition is listed for CC(C)(C)c1ccc(OCC(=O)N2CCC(c3nc4ccccc4s3)CC2)cc1 ?
Output: -14.4
